The reported measurements were obtained from ChEMBL document CHEMBL6182869.

Give Activity for every item shown.
- Test Details: Photophysical property of the compound assessed as singlet oxygen quantum yield by UV-vis spectrophotometric analysis
- Type: physicochemical

Challenge: Entry under review: `CC[N+](C)(CC)CCCOc1ccc(-c2c3nc(c(-c4ccc(OCCC[N+](C)(CC)CC)cc4)c4[nH]c(c(-c5ccc(OCCC[N+](C)(CC)CC)cc5)c5nc(c(-c6ccc(OCCC[N+](C)(CC)CC)cc6)c6[nH]c2c2cc7ccccc7cc62)-c2cc6ccccc6cc2-5)c2cc5ccccc5cc42)-c2cc4ccccc4cc2-3)cc1.[Br-].[Br-].[Br-].[Br-]` . Reported Activity?
Response given: 0.51

Challenge: Entry under review: `[Br-].[Br-].[Br-].[Br-].c1cc[n+](CCCCCOc2ccc(-c3c4nc(c(-c5ccc(OCCCCC[n+]6ccccc6)cc5)c5[nH]c(c(-c6ccc(OCCCCC[n+]7ccccc7)cc6)c6nc(c(-c7ccc(OCCCCC[n+]8ccccc8)cc7)c7[nH]c3c3cc8ccccc8cc73)-c3cc7ccccc7cc3-6)c3cc6ccccc6cc53)-c3cc5ccccc5cc3-4)cc2)cc1` . Reported Activity?
Response given: 0.5

----------
- Test Details: Photophysical property of the compound assessed as singlet oxygen quantum yield by UV-vis spectrophotometric analysis
- Type: physicochemical
Give Activity for every item shown.
Kindly provide the number alone.

Challenge: Entry under review: `[Br-].[Br-].[Br-].[Br-].c1cc[n+](CCCCOc2ccc(-c3c4nc(c(-c5ccc(OCCCC[n+]6ccccc6)cc5)c5[nH]c(c(-c6ccc(OCCCC[n+]7ccccc7)cc6)c6nc(c(-c7ccc(OCCCC[n+]8ccccc8)cc7)c7[nH]c3c3cc8ccccc8cc73)-c3cc7ccccc7cc3-6)c3cc6ccccc6cc53)-c3cc5ccccc5cc3-4)cc2)cc1` . Reported Activity?
Response given: 0.45

Challenge: Entry under review: `CC[N+](C)(CC)CCCCCCOc1ccc(-c2c3nc(c(-c4ccc(OCCCCCC[N+](C)(CC)CC)cc4)c4[nH]c(c(-c5ccc(OCCCCCC[N+](C)(CC)CC)cc5)c5nc(c(-c6ccc(OCCCCCC[N+](C)(CC)CC)cc6)c6[nH]c2c2cc7ccccc7cc62)-c2cc6ccccc6cc2-5)c2cc5ccccc5cc42)-c2cc4ccccc4cc2-3)cc1.[Br-].[Br-].[Br-].[Br-]` . Reported Activity?
Response given: 0.68

Challenge: Entry under review: `CC[N+](C)(CC)CCCCCOc1ccc(-c2c3nc(c(-c4ccc(OCCCCC[N+](C)(CC)CC)cc4)c4[nH]c(c(-c5ccc(OCCCCC[N+](C)(CC)CC)cc5)c5nc(c(-c6ccc(OCCCCC[N+](C)(CC)CC)cc6)c6[nH]c2c2cc7ccccc7cc62)-c2cc6ccccc6cc2-5)c2cc5ccccc5cc42)-c2cc4ccccc4cc2-3)cc1.[Br-].[Br-].[Br-].[Br-]` . Reported Activity?
Response given: 0.67

----------
Give Activity for every item shown.
- Test Details: Photophysical property of the compound assessed as fluorescence quantum yield by UV-vis spectrophotometric analysis
- Type: physicochemical
Kindly provide the number alone.

Challenge: Entry under review: `CC[N+](C)(CC)CCCCCCOc1ccc(-c2c3nc(c(-c4ccc(OCCCCCC[N+](C)(CC)CC)cc4)c4[nH]c(c(-c5ccc(OCCCCCC[N+](C)(CC)CC)cc5)c5nc(c(-c6ccc(OCCCCCC[N+](C)(CC)CC)cc6)c6[nH]c2c2cc7ccccc7cc62)-c2cc6ccccc6cc2-5)c2cc5ccccc5cc42)-c2cc4ccccc4cc2-3)cc1.[Br-].[Br-].[Br-].[Br-]` . Reported Activity?
Response given: 0.07

Challenge: Entry under review: `[Br-].[Br-].[Br-].[Br-].c1cc[n+](CCCCCCOc2ccc(-c3c4nc(c(-c5ccc(OCCCCCC[n+]6ccccc6)cc5)c5[nH]c(c(-c6ccc(OCCCCCC[n+]7ccccc7)cc6)c6nc(c(-c7ccc(OCCCCCC[n+]8ccccc8)cc7)c7[nH]c3c3cc8ccccc8cc73)-c3cc7ccccc7cc3-6)c3cc6ccccc6cc53)-c3cc5ccccc5cc3-4)cc2)cc1` . Reported Activity?
Response given: 0.07

Challenge: Entry under review: `C[N+](C)(C)CCCOc1ccc(-c2c3nc(c(-c4ccc(OCCC[N+](C)(C)C)cc4)c4[nH]c(c(-c5ccc(OCCC[N+](C)(C)C)cc5)c5nc(c(-c6ccc(OCCC[N+](C)(C)C)cc6)c6[nH]c2c2cc7ccccc7cc62)-c2cc6ccccc6cc2-5)c2cc5ccccc5cc42)-c2cc4ccccc4cc2-3)cc1.[Br-].[Br-].[Br-].[Br-]` . Reported Activity?
Response given: 0.07

----------
- Test Details: Photophysical property of the compound assessed as singlet oxygen quantum yield by UV-vis spectrophotometric analysis
- Type: physicochemical
Measurement Label: Activity
Kindly provide the number alone.

Challenge: Entry under review: `C[N+](C)(C)CCCCCOc1ccc(-c2c3nc(c(-c4ccc(OCCCCC[N+](C)(C)C)cc4)c4[nH]c(c(-c5ccc(OCCCCC[N+](C)(C)C)cc5)c5nc(c(-c6ccc(OCCCCC[N+](C)(C)C)cc6)c6[nH]c2c2cc7ccccc7cc62)-c2cc6ccccc6cc2-5)c2cc5ccccc5cc42)-c2cc4ccccc4cc2-3)cc1.[Br-].[Br-].[Br-].[Br-]` . Reported Activity?
Response given: 0.47

Challenge: Entry under review: `C[N+](C)(C)CCCOc1ccc(-c2c3nc(c(-c4ccc(OCCC[N+](C)(C)C)cc4)c4[nH]c(c(-c5ccc(OCCC[N+](C)(C)C)cc5)c5nc(c(-c6ccc(OCCC[N+](C)(C)C)cc6)c6[nH]c2c2cc7ccccc7cc62)-c2cc6ccccc6cc2-5)c2cc5ccccc5cc42)-c2cc4ccccc4cc2-3)cc1.[Br-].[Br-].[Br-].[Br-]` . Reported Activity?
Response given: 0.37

Challenge: Entry under review: `[Br-].[Br-].[Br-].[Br-].c1cc[n+](CCCOc2ccc(-c3c4nc(c(-c5ccc(OCCC[n+]6ccccc6)cc5)c5[nH]c(c(-c6ccc(OCCC[n+]7ccccc7)cc6)c6nc(c(-c7ccc(OCCC[n+]8ccccc8)cc7)c7[nH]c3c3cc8ccccc8cc73)-c3cc7ccccc7cc3-6)c3cc6ccccc6cc53)-c3cc5ccccc5cc3-4)cc2)cc1` . Reported Activity?
Response given: 0.45

----------
- Test Details: Induction of singlet oxygen quantum yield under 418 nm light irradiation by DPBF based assay
- Assay type: functional
Active and inactive are the calls of the source. The calls are words filed in the database; no cut-off is given here.
Measurement Label: Activity

Molecule Smiles	Endpoint Value
[Br-].[Br-].[Br-].[Br-].c1cc[n+](CCCOc2ccc(-c3c4nc(c(-c5ccc(OCCC[n+]6ccccc6)cc5)c5[nH]c(c(-c6ccc(OCCC[n+]7ccccc7)cc6)c6nc(c(-c7ccc(OCCC[n+]8ccccc8)cc7)c7[nH]c3c3cc8ccccc8cc73)-c3cc7ccccc7cc3-6)c3cc6ccccc6cc53)-c3cc5ccccc5cc3-4)cc2)cc1	Active
[Br-].[Br-].[Br-].[Br-].c1cc[n+](CCCCCOc2ccc(-c3c4nc(c(-c5ccc(OCCCCC[n+]6ccccc6)cc5)c5[nH]c(c(-c6ccc(OCCCCC[n+]7ccccc7)cc6)c6nc(c(-c7ccc(OCCCCC[n+]8ccccc8)cc7)c7[nH]c3c3cc8ccccc8cc73)-c3cc7ccccc7cc3-6)c3cc6ccccc6cc53)-c3cc5ccccc5cc3-4)cc2)cc1	Active
CC[N+](C)(CC)CCCOc1ccc(-c2c3nc(c(-c4ccc(OCCC[N+](C)(CC)CC)cc4)c4[nH]c(c(-c5ccc(OCCC[N+](C)(CC)CC)cc5)c5nc(c(-c6ccc(OCCC[N+](C)(CC)CC)cc6)c6[nH]c2c2cc7ccccc7cc62)-c2cc6ccccc6cc2-5)c2cc5ccccc5cc42)-c2cc4ccccc4cc2-3)cc1.[Br-].[Br-].[Br-].[Br-]	Active
CC[N+](C)(CC)CCCCCOc1ccc(-c2c3nc(c(-c4ccc(OCCCCC[N+](C)(CC)CC)cc4)c4[nH]c(c(-c5ccc(OCCCCC[N+](C)(CC)CC)cc5)c5nc(c(-c6ccc(OCCCCC[N+](C)(CC)CC)cc6)c6[nH]c2c2cc7ccccc7cc62)-c2cc6ccccc6cc2-5)c2cc5ccccc5cc42)-c2cc4ccccc4cc2-3)cc1.[Br-].[Br-].[Br-].[Br-]	Active
C[N+](C)(C)CCCCCCOc1ccc(-c2c3nc(c(-c4ccc(OCCCCCC[N+](C)(C)C)cc4)c4[nH]c(c(-c5ccc(OCCCCCC[N+](C)(C)C)cc5)c5nc(c(-c6ccc(OCCCCCC[N+](C)(C)C)cc6)c6[nH]c2c2cc7ccccc7cc62)-c2cc6ccccc6cc2-5)c2cc5ccccc5cc42)-c2cc4ccccc4cc2-3)cc1.[Br-].[Br-].[Br-].[Br-]	Active

Next, consider the following compound.
Challenge: Entry under review: `CC[N+](C)(CC)CCCCOc1ccc(-c2c3nc(c(-c4ccc(OCCCC[N+](C)(CC)CC)cc4)c4[nH]c(c(-c5ccc(OCCCC[N+](C)(CC)CC)cc5)c5nc(c(-c6ccc(OCCCC[N+](C)(CC)CC)cc6)c6[nH]c2c2cc7ccccc7cc62)-c2cc6ccccc6cc2-5)c2cc5ccccc5cc42)-c2cc4ccccc4cc2-3)cc1.[Br-].[Br-].[Br-].[Br-]` . Reported Activity?
Response given: Active
